experimental.details: qHTS assay to identify small molecule antagonists of the androgen receptor (AR) signaling pathway - cell viability counter screen (AID 743033; note: nearly all actives have a fitted effect of over 45% in size; note: potency is the fitted concentration of half-maximal effect)
condition.details: AR-bla HEK293 viability, CellTiter-Glo luminescence, 16 h; series mostly up to 58.5 µM
Inconclusive results are not listed. The source made the active and inactive calls. Calls come from the whole dose curve; as a rule, active = well fitted cell-killing curve with a large enough effect in the repeat runs; inconclusive = weak or mixed curves; inactive = no such curve, though single readings can be large or run the other way.
quantity: Potency

In [3]: df
Out[3]:
                                   compound  quantity    reported_value
0  CC1(c2ccc(Oc3ccccc3)cc2)OC(=O)N(Nc2ccccc2)C1=O (stereo unspecified)   Potency  24.7 µM (active)
1                          [Hg+2].[I-].[I-]   Potency  21.9 µM (active)
2          O=[N+]([O-])c1c2ccccc2cc2ccccc12   Potency          inactive
3                        [Cl][Sb]([Cl])[Cl]   Potency          inactive
4         CC(=O)c1cc(C(C)(C)C)cc2c1CCC2(C)C   Potency          inactive

Let us move to another entry and its Potency.
Entry `CSCCCN=C=S` has what Potency? inactive
